assay: chemical genetic growth profiling, strain panel (AID 1159580);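 also: tested at 20 µM; growth read once vehicle control cultures reached saturation at 30 °C; 1 = growth at the plate median or of vehicle wells; lower values mean less growth of the strain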; details: S. cerevisiae deletion strains, growth OD, locus YPL055C, strain LGE1, hits give low values
Hit rate of the full screen: of about 5,500 compounds, about 2,000 (36%) were called active. About 18% were inconclusive and are not listed. This is one part of the list.
VALUE_TYPE: normalized growth

# COMPOUND, VALUE_TYPE, OBS_VALUE
data = [
    ("COc1cccc(Nc2nc3ccccc3s2)c1", "normalized growth", 0.548),
    ("NS(=O)(=O)c1ccc(-n2ncc3ccccc3c2=O)cc1", "normalized growth", 1.02),
    ("C=C(C)[C@H]1Cc2c(ccc3c2O[C@@H]2COc4cc(OC)c(OC)cc4[C@@H]2C3=O)O1", "normalized growth", 0.942),
    ("NC(N)=NC(N)=Nc1ccccc1", "normalized growth", 0.993),
    ("COc1ccc(C(=O)c2ccc(O)cc2)c(O)c1O", "normalized growth", 1.05),
    ("COc1ccc(CCN(C)CCCC(C#N)(c2cc(OC)c(OC)c(OC)c2)C(C)C)cc1OC (centres undefined)", "normalized growth", 1),
    ("O=C(O)c1nccnc1C(=O)O", "normalized growth", 0.951),
    ("CC1(C)S[C@@H]2[C@H](NC(=O)Cc3ccccc3)C(=O)N2[C@H]1C(=O)O", "normalized growth", 1.01),
    ("Cc1onc(-c2ccccc2)c1C(=O)NC1C(=O)N2[C@@H]1SC(C)(C)[C@@H]2C(=O)O (some centres undefined)", "normalized growth", 1.05),
    ("O=C(O)c1cc(=O)c2c(Cl)cc(Cl)cc2[nH]1", "normalized growth", 0.992),
    ("C1CCC(C(CC2CCCCN2)C2CCCCC2)CC1 (centres undefined)", "normalized growth", 0.4),
    ("COC(=O)c1scc(S(=O)(=O)C(C)C)c1N/N=C(/C#N)C(=O)c1ccccc1", "normalized growth", 0.885),
    ("CCNc1nc(Cl)nc(NCC)n1", "normalized growth", 0.992),
    ("COc1cc2c(cc1OC)[C@@H]1C(=O)c3ccc4c(c3O[C@@H]1CO2)CC(C(C)C)O4 (some centres undefined)", "normalized growth", 0.929),
    ("COc1cc2cc3c4cc(OC)c(OC)cc4cc[n+]3c(C)c2cc1OC", "normalized growth", 0.999),
    ("CC(C)S(=O)(=O)c1csc(C(N)=O)c1Cl", "normalized growth", 0.954),
    ("COc1cccc(NC(=O)NC2Cc3ccccc3C2)c1", "normalized growth", 0.883),
    ("O=c1cc(C(F)(F)F)[nH]c2cc(Cl)cc(Cl)c12", "normalized growth", 0.523),
    ("COc1cc2c(cc1OC)[C@@]13CCN4CC5=CCOC6CC(=O)N2C1[C@H]6[C@H]5C[C@H]43 (some centres undefined)", "normalized growth", 1.03),
    ("CC(=O)OCC(=O)[C@@]12OC3(CCCC3)O[C@@H]1CC1C3CCC4=CC(=O)C=C[C@]4(C)[C@@]3(F)[C@@H](O)C[C@@]12C (some centres undefined)", "normalized growth", 1.01),
    ("O=C(COC(=O)c1ccccc1C(=O)c1ccccc1)c1ccccc1", "normalized growth", 0.979),
    ("COc1cccc(NC(N)=S)c1", "normalized growth", 0.984),
    ("COc1ccc([C@H]2COc3c(ccc(O)c3OC)C2)c(OC)c1O", "normalized growth", 1.01),
    ("CNS(=O)(=O)c1cc(Br)ccc1S(=O)c1ccccc1C(=O)O (centres undefined)", "normalized growth", 1.04),
    ("CC1(C)C=Cc2cc3ccc(=O)oc3cc2O1", "normalized growth", 0.951),
    ("CCCCCN(CCCCC)C(=O)C(CCC(=O)O)NC(=O)c1ccc(Cl)c(Cl)c1 (centres undefined)", "normalized growth", 0.983),
    ("Cc1onc(-c2ccccc2Cl)c1C(=O)N[C@@H]1C(=O)N2[C@@H]1SC(C)(C)[C@@H]2C(=O)O", "normalized growth", 1.03),
    ("N[C@@H](CCl)C(=O)O", "normalized growth", 1.02),
    ("COC(=O)c1cc([N+](=O)[O-])ccc1N1CCOCC1", "normalized growth", 1.02),
]

* * *

experiment: chemical genetic growth profiling, strain panel (AID 1159580); conditions: S. cerevisiae deletion strains, growth OD, locus YOL006C, strain TOP1
About 2,000 (36%) of roughly 5,500 compounds were called active. About 18% were inconclusive and are not listed. No stated cut-off is given here; in the data, active means normalized growth mostly below about 0.91 (no sharp cut-off); inconclusive means no clear call, values can overlap the other calls; inactive means mostly above about 0.92. The list shows a part of the results.
Outcome codes: TRUE = active, FALSE = inactive

# MOLECULE, LABEL
rows = [
    ("CC(=O)Oc1cccc2c1C(=O)c1c(OC(C)=O)cc(C(=O)O)cc1C2=O", "FALSE"),
    ("OC(c1cc(C(F)(F)F)nc2c(C(F)(F)F)cccc12)C1CCCCN1 (stereo not given)", "FALSE"),
    ("CC(=O)OCC1=C(C(=O)O)N2C(=O)[C@@H](NC(=O)CCCC(N)C(=O)O)C2SC1 (stereo not given in full)", "FALSE"),
    ("Cc1cc(C(C)(C)C)c(O)c(C)c1CC1=NCCN1", "FALSE"),
    ("Cc1c(NC(=O)c2cccnc2)c(=O)n(-c2ccccc2)n1C", "FALSE"),
    ("COc1cnc(NS(=O)(=O)c2ccc(N)cc2)nc1", "FALSE"),
    ("CC[C@H]1OC(=O)[C@H](C)[C@@H](O[C@H]2C[C@@](C)(OC)[C@@H](O)[C@H](C)O2)[C@H](C)[C@@H](O[C@@H]2O[C@H](C)C[C@H](N(C)C)[C@H]2O)[C@](C)(O)C[C@@H](C)[C@@H]2N[C@@H](COCCOC)O[C@H]([C@H]2C)[C@]1(C)O", "FALSE"),
    ("COc1ccc(C(=O)c2ccc(O)cc2)c(O)c1O", "FALSE"),
    ("O=C(O)c1cc(=O)c2c(Cl)cc(Cl)cc2[nH]1", "FALSE"),
    ("COc1cc(/C=C2/N=C(c3ccccc3I)OC2=O)cc(OC)c1OC", "FALSE"),
    ("CC(=O)[O][Hg][c]1ccccc1", "TRUE"),
    ("CCOc1ccc(C(=O)c2cc(O)c(OC)c(OC)c2O)cc1", "FALSE"),
    ("NC(N)=NC(N)=Nc1ccccc1", "FALSE"),
    ("COc1cccc(O)c1O", "FALSE"),
    ("COc1cccc(OC)c1C(=O)N[C@@H]1C(=O)N2[C@@H]1SC(C)(C)[C@@H]2C(=O)O", "FALSE"),
]

* * *

normalized growth values by entry
assay: chemical genetic growth profiling, strain panel (AID 1159580);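 also: tested at 20 µM; growth read once vehicle control cultures reached saturation at 30 °C; 1 = growth at the plate median or of vehicle wells; lower values mean less growth of the strain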; details: S. cerevisiae deletion strains, growth OD, locus YDL040C, strain nat1, hits give low values
Among all 5,500 compounds or so, about 2,000 (36%) were called active. Inconclusive results (about 18%) are left out. Some of the results follow.
VALUE_TYPE: normalized growth

# COMPOUND, VALUE_TYPE, OBS_VALUE
rows = [
    ("C1CCC(C(CC2CCCCN2)C2CCCCC2)CC1 (stereo not given)", "normalized growth", 0.978),
    ("COc1ccc2c(c1)[C@]13CCCC[C@H]1[C@H](C2)N(C)CC3", "normalized growth", 0.962),
    ("CC(=O)NO", "normalized growth", 0.979),
    ("NC(=O)NO", "normalized growth", 1.04),
    ("c1ccc2c(Cc3c[nH]c4ccccc34)c[nH]c2c1", "normalized growth", 0.784),
]

* * *

assay: chemical genetic growth profiling, strain panel (AID 1159580);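 also: tested at 20 µM; growth read once vehicle control cultures reached saturation at 30 °C; 1 = growth at the plate median or of vehicle wells; lower values mean less growth of the strain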; settings: S. cerevisiae deletion strains, growth OD, locus YCL016C, strain dcc1, hits give low values
The campaign covered roughly 5,500 compounds. About 2,000 (36%) were called active. Not shown: some 18% with an inconclusive outcome. The list shows a part of the results.

# COMPOUND, normalized growth
data = [
    ("CCC1(CC)C(=O)C=CNC1=O", 0.998),
    ("C#C[C@]1(O)CCC2C3CCC4=Cc5oncc5C[C@]4(C)C3CC[C@@]21C (stereo partly drawn)", 0.996),
    ("C[C@]12CCC(=O)C=C1CCC1C2C(=O)C[C@@]2(C)C1CC[C@]2(O)C(=O)CO (stereo partly drawn)", 1),
]

* * *

experiment: chemical genetic growth profiling, strain panel (AID 1159580);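 also: tested at 20 µM; growth read once vehicle control cultures reached saturation at 30 °C; 1 = growth at the plate median or of vehicle wells; lower values mean less growth of the strain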; details: S. cerevisiae deletion strains, growth OD, locus YPR141C, strain kar3, hits give low values
The campaign covered roughly 5,500 compounds. About 2,000 (36%) were called active. About 18% were inconclusive and are not listed. The list shows a part of the results. Where a SMILES comes first, the peptide text is derived from it. Side-chain parts run from the residue outwards. [ ]: non-standard residue; d: D form. The star is where a group is joined. X1 = CCC(C)C(N)C1=NC(C(=O)*)CS1; Orn = NCCC[CH](N)C(=O)O

# COMPOUND, normalized growth
rows = [
    ("COc1ccc(C(=O)c2ccccc2)c(O)c1O", 0.923),
    ("CCC(C)C(N)C1=NC(C(=O)NC(CC(C)C)C(=O)NC(CCC(=O)O)C(=O)NC(C(=O)NCCCCC2NC(=O)C(CC(N)=O)NC(=O)C(CC(=O)O)NC(=O)C(Cc3cnc[nH]3)NC(=O)C(Cc3ccccc3)NC(=O)C(C(C)CC)NC(=O)C(CCCN)NC2=O)C(C)CC)CS1 (stereo not drawn) (cyclo(DNK([Ile-Glu-Leu-X1])[Orn]IFH); configuration not given here)", 0.994),
    ("CCOc1ccc(NC(C)=O)cc1", 0.993),
    ("CCOc1ccc(C(=O)c2cc(O)c(OC)c(OC)c2O)cc1", 1),
]
